Assay system IMP-28 (Klebsiella oxytoca); read-out recorded as IC50.
All answers are understood in µM, so give the number only.

compound	measurement_type	endpoint_value
O=C(Cc1ccccc1)N[C@@H]1C(=O)N2C(C(=O)O)=C(COC(=O)c3cccc(C(=O)O)n3)CS(=O)(=O)[C@H]12 [compound 15]	IC50	61.9
O=C(Cc1ccccc1)N[C@@H]1C(=O)N2C(C(=O)O)=C(CSc3cccc4cccnc34)CS(=O)(=O)[C@H]12 [compound 8]	IC50	46.2
O=C(Cc1ccccc1)N[C@@H]1C(=O)N2C(C(=O)O)=C(COC(=O)c3cccc(C(=O)O)n3)C[S+]([O-])[C@H]12 (some centres unmarked) [compound 14]	IC50	46.7
O=C(Cc1ccccc1)N[C@@H]1C(=O)N2C(C(=O)O)=C(CSc3cccc4cccnc34)CS[C@H]12 [compound 6]	IC50	10.3
O=C(Cc1ccccc1)N[C@@H]1C(=O)N2C(C(=O)O)=C(CSc3cccc4cccnc34)C[S+]([O-])[C@H]12 (some centres unmarked) [compound 7]	IC50	71.9

So what IC50 did Sc1cccc2cccnc12 [8-TQ] get with IMP-28 (Klebsiella oxytoca)?
4.2

What is its IC50 for IMP-28 (Klebsiella oxytoca)? Entry: O=C(O)c1cccc(C(=O)O)n1 [DPA]
9.65

What value of IC50 on IMP-28 (Klebsiella oxytoca) does O=C(Cc1ccccc1)N[C@@H]1C(=O)N2C(C(=O)O)=C(COC(=O)c3cccc(C(=O)O)n3)CS[C@H]12 [compound 13] have?
7.39
